Cited source: patent US20250171534A1

Molecular target: T1, human LILRB2 expressed on cells (human, UniProt Q8N423 22-597)
T1 construct: In 293T cells it was expressed from pCMV3-LILRB2-GFP; also called CHO-LILRB2; Jurkat-LILRB2
T1 sequence (Q8N423 other isoform, or with tags, fused parts or gaps limits assumed): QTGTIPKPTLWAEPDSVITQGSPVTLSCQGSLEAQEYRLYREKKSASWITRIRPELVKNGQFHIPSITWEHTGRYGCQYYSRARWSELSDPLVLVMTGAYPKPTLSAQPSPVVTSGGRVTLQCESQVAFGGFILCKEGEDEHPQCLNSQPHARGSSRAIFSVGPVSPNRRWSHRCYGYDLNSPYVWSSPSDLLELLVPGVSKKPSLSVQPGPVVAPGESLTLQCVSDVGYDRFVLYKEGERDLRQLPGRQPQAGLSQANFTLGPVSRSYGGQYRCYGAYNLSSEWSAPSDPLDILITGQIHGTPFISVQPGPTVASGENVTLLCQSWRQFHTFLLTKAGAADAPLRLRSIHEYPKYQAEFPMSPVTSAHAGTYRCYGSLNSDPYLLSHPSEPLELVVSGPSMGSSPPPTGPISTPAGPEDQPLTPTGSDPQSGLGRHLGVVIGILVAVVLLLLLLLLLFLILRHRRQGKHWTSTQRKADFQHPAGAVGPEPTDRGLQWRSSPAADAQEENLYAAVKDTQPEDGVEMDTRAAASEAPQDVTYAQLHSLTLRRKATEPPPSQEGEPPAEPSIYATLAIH
Assay: flow cytometry on CHO-LILRB2 cells (CHO-RB2), titrated antibody, labelled anti-human Fc, gMFI
outcomeMeasure: EC50 (read off the curve)

- binder: "D2M002-026 (antibody, V domains shown, Hit; also called clone #26) VH: QVQLQQPGAELMKPGASVKISCKATGYTFSSYWIEWVKQRPGHGLEWIGEILPGDGSTNYNAKFKGQATFTADTSSNTAYMQFSSLTSEDSAVYYCARSGAGGYDSGAFAYWGQGTLVTVSS VL: DIVLTQSPASLAVSLGQRATISCRASESVDTYGNSFMHWYQQKPGQPPKLLVYRTSNLESGIPARFSGSGSGTDFTLTINPVEADDVATYYCQQSNEDPWTFGGGTKLEIK"
  reading: "~0.2 µg/mL"
- binder: "D2M002-103HV1 (antibody, V domains shown, Humanized and optimized variant of the D2M002-002 lineage) VH: QVQLVQSGAEVKKPGASVKVSCKASGYTFTRYVMHWVRQAPGQRLEWIGYINPNNEETKYSQKFKGRVTLTRDTSASTAYMELSSLRSEDTAVYYCARADLEILPYYDHARYAMDYWGQGTLVTVSS VL: DIQMTQSPSSVSASVGDRVTITCRASENIYSHLAWYQQKPGKAPKLLVYNAKSLQSGVPSRFSGSGSGTDFTLTISSLQPEDFATYYCQHFWSTPPTFGGGTKVEIK"
  reading: "~0.06 µg/mL"
- binder: "D2M002-126 (antibody, V domains shown, Humanized and optimized variant of D2M002-026) VH: QVQLVQSGAEVKKPGASVKVSCKASGYTFTSYWIEWVRQAPGQGLEWIGEILPGDESTNYNAKFKGRVTFTTDTSTSTAYMELRSLRSDDTAVYYCARSGAGGYDSGAFAYWGQGTLVTVSS VL: AIQLTQSPSSLSASVGDRVTITCRASESVDTYGNSFMHWYQQKPGKAPKLLVYRTSNLESGVPSRFSGSGSGTDFTLTISSLQPEDFATYYCQQSNEDPWTFGGGTKVEIK"
  reading: "~0.2 µg/mL"
- binder: "D2M002-002 (antibody, V domains shown, Hit from immunised mice; also called clone #2; anti-LILRB1/2 clone #2) VH: EVQLQQSGPELVKPGASVKMSCKASGYTFTRYVMHWVKQKPGQGLEWIGYINPNNDGTKYNEKFKGKVTLTSDKSSSTAYMELSSLTSEDSAVYYCARGDLEILPYYDHARNAMDYWGQGTSVTVSS VL: DVQMIQSPASLSASVGETVTITCRASENIYSYLAWYQQKQGKSPQLLVYNAKTLAEGVPSRFSGSGSGTQFSLKINSLQPEDFGSYYCQHFWSTPPTFGGGTKLEIK"
  reading: "~0.1 µg/mL"
